# ASSAY SYSTEM: Solute carrier family 2, facilitated glucose transporter member 1 (Homo sapiens) (UniProt P11166)
# Sequence (P11166 whole entry): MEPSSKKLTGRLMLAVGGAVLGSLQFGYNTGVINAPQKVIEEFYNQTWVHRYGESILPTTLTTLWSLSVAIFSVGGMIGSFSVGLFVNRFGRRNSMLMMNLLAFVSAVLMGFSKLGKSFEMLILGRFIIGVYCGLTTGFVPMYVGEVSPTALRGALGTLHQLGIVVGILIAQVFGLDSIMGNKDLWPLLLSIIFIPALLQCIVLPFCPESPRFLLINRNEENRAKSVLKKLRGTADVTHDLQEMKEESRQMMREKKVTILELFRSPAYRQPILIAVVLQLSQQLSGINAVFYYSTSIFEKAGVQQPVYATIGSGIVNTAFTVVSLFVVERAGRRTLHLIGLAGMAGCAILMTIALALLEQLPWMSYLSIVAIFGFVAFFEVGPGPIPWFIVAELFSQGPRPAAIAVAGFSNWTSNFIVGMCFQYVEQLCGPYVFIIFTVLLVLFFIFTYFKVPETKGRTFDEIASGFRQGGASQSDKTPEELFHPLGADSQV
# EXPERIMENT SUMMARY: ST_JUDE_LEISH: Cytotoxicity at 2uM final concentration against transgenic Leishmania Mexicana promastigotes LmGLUT1 that are glucose transport deficient and complemented with the human glucose transporter GLUT1. Activity is measured by DNA content using SYBR green in vitro
# Format: functional
Would you kindly list inhibition for each of these molecules?
Give just the number in %; leave the unit off.

[ask] Which value of inhibition has been reported for CCS(=O)(=O)Nc1ccc2c(c1)/C(=C(/Nc1ccc(CN3CCCCC3)cc1)c1ccccc1)C(=O)N2 in the records?
[reply] 83.1

[ask] For CC(=O)N1N=C(c2ccc(F)cc2)Sc2c1nc(C1CCCCC1)n2C(C)=O then?
[reply] 8.37

[ask] For CCCCNCc1ccc(-c2nc(CN(Cc3ccc(Cl)c(Cl)c3)C(=O)CN(C)C)cs2)cc1 then?
[reply] 50.3

[ask] For O=C(Nc1cccc(CN2CCCN(Cc3cccc(O)c3)CC2)c1)c1ccc(Cl)c(Cl)c1 then?
[reply] 13.9

[ask] For CNCCNCc1cccc(-c2ccc(-c3nc4cc(C(F)(F)F)ccc4[nH]3)s2)c1 then?
[reply] 2.35
